Each entry below lists one item and its recorded INHIBITION value.
# System: Plasmodium falciparum
# assay.method.text: Screen against P. falciparum Asexual Blood Stage (ABS), at 5uM
# Assay type: functional, Dd2
# measurement.context: tested at 5 uM
Screen size: about 65,000 compounds; about 2,100 (3.2%) showed an effect of 50% or more. The median lay at about -52%. This excerpt belongs to a sample that is enriched for strong results.

compound: c1coc(-c2nc(CN3CCCC(Cn4cncn4)C3)cs2)c1 (stereo unspecified)
INHIBITION: -19.5%

compound: NCCn1nc(C2CCN(C(=O)Cc3ccccc3)C2)c2nccnc21 (stereo unspecified)
INHIBITION: -28.7%

compound: O=C(Nc1cccc(N2CCOCC2)c1)N[C@H](CO)c1ccccc1
INHIBITION: -104%

compound: COCC(=O)N1CCCn2c(CN3CCCC3)nnc2C1
INHIBITION: -108%

compound: COc1ccc2cc(CNCc3c(C)nn(C)c3N(C)C)ccc2c1
INHIBITION: 18.6%

compound: CC(C)(N)C(=O)N1CCC(c2nccnc2Oc2ccccc2F)CC1
INHIBITION: -4.82%
